The origin of these recorded values is patent US20230331820A1.

molecular target: gEgI mutant (338): HSV2 gEgI mutant heterodimer comprising gE and gI ectodomains with insertion of a (HSV2, UniProt P89475 21-416; P06764 21-256); experiment: ELISA, supernatant
endpoint label: binding result

- binder: "mAb clone 19 (antibody, V domains shown) VH: QVQLQQSGAELVRPGVSVKISCKGSGYTFTDYAMHWVKQSHAKSLEWIGVISTYYGDARYNQKFKGKATMTVDKSSSTAYMELARLTSEDSAIYYCARRGITVVADYAMDYWGQGTSVTVSS VL: QIVLTQSPAIMSASPGEKVTMSCSASSSVTYMHWYQQKSGTSPKRWIYDTSKLASGVPARFSGSGSGTSYSLTISSMEAEDAATYYCQQWSSNPPTFGGGTKLEIK"
  binding result: "binds"
- binder: "mAb clone 43 (antibody, V domains shown, also called GEGI/43IIa) VH: DVKLVESGGGLVKPGGSLKLSCAASGFTFSSYTMSWVRQTPEKRLEWVATISSGGSYTYYPDSVKGRFTISRDNAKNTLYLQMSSLKAEDTAMYYCTRGGYGSSFENYFDYWGQGTTLTVSS VL: DIVMSQSPSSLAVSAGEKVTMSCKSSQSLLNSRTRKNYLAWYQQKPGQSPKLLIYWASTRESGVPDRFTGSGSGTDFTLTISSVQAEDLAVYSCKQSYNLPLTFGAGTKLELK"
  binding result: "binds"
- binder: "mAb clone 44 (antibody, V domains shown) VH: EVQLQQSGPELEKPGASVKISCKASGYSFTGYNMNWVKQSNGKSLEWIGNIDPYYGGIRYNQKFKGKATLTVDKSSSTAYMQLKSLTSEDSAVYYCAREDRYLVHYYAMDYWGQGTSVTVSS VL: QIVLTQSPAIMSASPGEKVTMTCSASSSISYMHWYQQKPGTSPKRWIYDTSKLASGVPARFSGSGSGTSYSLTISSMEAEDAATYYCHQRSSYPYTFGGGTKLEIK"
  binding result: "binds"
- binder: "mAb clone 35, 36 (antibody, V domains shown) VH: QVQLKESGPGLVAPSQSLSITCTVSGFSLTSYGVHWVRQPPGKGLEWLGVIWAGGSTNYNSALMSRLSISKDNSKSQVFLKMNSLQTDDTAMYYCATDGYKFFYYAMDYWGQGTSVTVSS VL: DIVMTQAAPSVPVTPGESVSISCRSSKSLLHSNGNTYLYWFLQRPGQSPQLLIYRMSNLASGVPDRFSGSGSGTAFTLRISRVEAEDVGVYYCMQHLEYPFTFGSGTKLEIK"
  binding result: "binds"

Shift focus to the following entry.
Query block: Value lookup for binding result; key = mAb clone 48 (antibody, V domains shown) VH: QVTLKESGPGILQPSQTLSLTCSFSGFSLSTSGMGVSWIRQPSGKGLEWLAHIYWDDDKRYNPSLKSRLTISKDTSSNQVFLKITSVDTADTATYYCARRGFYYRYDGGRRYYYAMDYWGQGTSVTVSS VL: DILLTQSPAILSVSPGERVSFSCRASQSIGTSIHWYQQGTNGSPRLLIKFASESISGIPSRFSGSGSGTDFTLSINSVESEDIADYYCQQSNSWPLTFGAGTKLELK
Result block: binds
